assay-target: HLA-A*02:03
test-summary: IEDB peptide-MHC binding, purified MHC/competitive/radioactivity; bounds were set here for any values at or beyond the usual limits of such assays
cond: source organism: Influenza A virus
pIC50: −log10 of the molar value.
Label scheme for pIC50: lower than 6 is no (0), 6 and above is yes (1).

Problem: Does the sequence NVMGMIGV have recorded pIC50 that is 6 or more?
Solution: yes (1)

Problem: Does the sequence FNMLSTVLGV have recorded pIC50 that is 6 or more?
Solution: yes (1)

Problem: Does the sequence RAMAWTVV have recorded pIC50 that is 6 or more?
Solution: no (0)

Problem: Does the sequence MLLRSAIGQV have recorded pIC50 that is 6 or more?
Solution: yes (1)

Problem: Does the sequence NLYNIRNL have recorded pIC50 that is 6 or more?
Solution: yes (1)

Problem: Does the sequence GTSGVESAV have recorded pIC50 that is 6 or more?
Solution: no (0)

Problem: Does the sequence RTLFQQMRDVL have recorded pIC50 that is 6 or more?
Solution: no (0)

Problem: Does the sequence NLFEKFFPSS have recorded pIC50 that is 6 or more?
Solution: yes (1)

Problem: Does the sequence AAMDDFQLI have recorded pIC50 that is 6 or more?
Solution: no (0)

---

assay-target: HLA-A*02:01
test-summary: IEDB peptide-MHC binding, cellular MHC/competitive/fluorescence; bounds were set here for any values at or beyond the usual limits of such assays
cond: source organism: Mammarenavirus machupoense
Threshold check on IC50: strictly below 8 µM is class 1; on or above 8 µM is class 0.

Problem: Is it true that IC50 reported for YNFSLSAAV is less than 8 µM?
Solution: class 1

Problem: Is it true that IC50 reported for LNVSYLCHL is less than 8 µM?
Solution: class 1

Problem: Is it true that IC50 reported for YNCKCCWFA is less than 8 µM?
Solution: class 0

Problem: Is it true that IC50 reported for SVVQALTSL is less than 8 µM?
Solution: class 0

---

assay-target: HLA-A*02:01
test-summary: IEDB peptide-MHC binding, purified MHC/competitive/radioactivity; bounds were set here for any values at or beyond the usual limits of such assays
cond: source organism: Mammarenavirus machupoense
Threshold check on IC50: strictly below 80 nM is YES; on or above 80 nM is NO.

Problem: Is it true that IC50 reported for FLQEALNIAL is less than 80 nM?
Solution: YES

Problem: Is it true that IC50 reported for EALNIALVAV is less than 80 nM?
Solution: NO

Problem: Is it true that IC50 reported for AMPGVLSYV is less than 80 nM?
Solution: YES

Problem: Is it true that IC50 reported for KSFFWFNEV is less than 80 nM?
Solution: YES

Problem: Is it true that IC50 reported for FLQEALNIA is less than 80 nM?
Solution: YES

Problem: Is it true that IC50 reported for LLDCIMYQS is less than 80 nM?
Solution: NO

Problem: Is it true that IC50 reported for MVDEEPAAL is less than 80 nM?
Solution: NO

Problem: Is it true that IC50 reported for GLSQFTHTV is less than 80 nM?
Solution: YES

Problem: Is it true that IC50 reported for ALTIACMTV is less than 80 nM?
Solution: NO

Problem: Is it true that IC50 reported for LNIALVAVSL is less than 80 nM?
Solution: NO

Problem: Is it true that IC50 reported for LNKSDSSWAV is less than 80 nM?
Solution: NO

Problem: Is it true that IC50 reported for FLPKAAFAL is less than 80 nM?
Solution: YES

Problem: Is it true that IC50 reported for GLYMGNLSQL is less than 80 nM?
Solution: YES

Problem: Is it true that IC50 reported for DAMPGVLSYV is less than 80 nM?
Solution: YES

Problem: Is it true that IC50 reported for VLSYVIGLL is less than 80 nM?
Solution: NO

Problem: Is it true that IC50 reported for AMPGVLSYVI is less than 80 nM?
Solution: NO

Problem: Is it true that IC50 reported for SLIKSTLQV is less than 80 nM?
Solution: NO

Problem: Is it true that IC50 reported for TMNSVVQAL is less than 80 nM?
Solution: NO

Problem: Is it true that IC50 reported for ALVAVSLIA is less than 80 nM?
Solution: NO

Problem: Is it true that IC50 reported for ALLPLSLLFL is less than 80 nM?
Solution: YES

Problem: Is it true that IC50 reported for SLLPLSLLFL is less than 80 nM?
Solution: YES

Problem: Is it true that IC50 reported for KSYFTNAAL is less than 80 nM?
Solution: NO

Problem: Is it true that IC50 reported for FTASLFLHLV is less than 80 nM?
Solution: YES

Problem: Is it true that IC50 reported for NLTEMQEAV is less than 80 nM?
Solution: NO

---

Provide the recorded IC50 for the entries that follow.
assay-target: HLA-A*68:02
test-summary: IEDB peptide-MHC binding, cellular MHC/competitive/fluorescence; bounds were set here for any values at or beyond the usual limits of such assays
cond: source organism: Mammarenavirus whitewaterense
Unit µM implied. Number only.

Problem: Could you share which IC50 value was measured for INISGYNLSL ?
Solution: 17.4

Problem: Could you share which IC50 value was measured for FLLRGPFEAS ?
Solution: 38.9

Problem: Could you share which IC50 value was measured for GLVDVCFWS ?
Solution: 8.22

Problem: Could you share which IC50 value was measured for GLLQFIVFL ?
Solution: 12

Problem: Could you share which IC50 value was measured for YCHGILLKDV ?
Solution: 57.6

---

Provide the recorded IC50 for the entries that follow.
assay-target: HLA-A*68:02
test-summary: IEDB peptide-MHC binding, purified MHC/competitive/radioactivity; bounds were set here for any values at or beyond the usual limits of such assays
cond: source organism: Vaccinia virus WR
Unit µM implied. Number only.

Problem: Could you share which IC50 value was measured for EVMPEKRNVV ?
Solution: 0.107

Problem: Could you share which IC50 value was measured for CIVQSVLRDI ?
Solution: 3.48

Problem: Could you share which IC50 value was measured for IALALEQYGI ?
Solution: 2.9

Problem: Could you share which IC50 value was measured for DTDIVNNFI ?
Solution: 0.628

Problem: Could you share which IC50 value was measured for ITVGMLIYSM ?
Solution: 0.611

Problem: Could you share which IC50 value was measured for EAFETQSGAL ?
Solution: 0.068

Problem: Could you share which IC50 value was measured for STTENAAYQV ?
Solution: 0.015

Problem: Could you share which IC50 value was measured for NITRLEVIGL ?
Solution: 0.301

Problem: Could you share which IC50 value was measured for RVNHAKYMVT ?
Solution: 0.544

Problem: Could you share which IC50 value was measured for LAEHISDSI ?
Solution: 0.428

Problem: Could you share which IC50 value was measured for FTHTTAFFNT ?
Solution: 1.02

Problem: Could you share which IC50 value was measured for SISEINEWL ?
Solution: 0.0013

Problem: Could you share which IC50 value was measured for IVPDADPPI ?
Solution: 1.52

Problem: Could you share which IC50 value was measured for KLRSSPPIPM ?
Solution: 4.28

Problem: Could you share which IC50 value was measured for FTSDYPFYV ?
Solution: 0.0011

Problem: Could you share which IC50 value was measured for WLGAAITLVV ?
Solution: 0.264

Problem: Could you share which IC50 value was measured for LLTDTIESA ?
Solution: 1.24

Problem: Could you share which IC50 value was measured for VITYCLVTHM ?
Solution: 0.387

Problem: Could you share which IC50 value was measured for TLLIKTLSPA ?
Solution: 1.21

Problem: Could you share which IC50 value was measured for DVIKSISSI ?
Solution: 0.504

Problem: Could you share which IC50 value was measured for YVVIVENDNV ?
Solution: 0.099

Problem: Could you share which IC50 value was measured for FIMRNFLRSI ?
Solution: 0.131

Problem: Could you share which IC50 value was measured for VTTNNLLEQL ?
Solution: 2.94

Problem: Could you share which IC50 value was measured for FVKENERVNV ?
Solution: 1.29

Problem: Could you share which IC50 value was measured for AAVIIMAINV ?
Solution: 0.095

Problem: Could you share which IC50 value was measured for NIKISLNEIL ?
Solution: 1.61

Problem: Could you share which IC50 value was measured for HLMSDNPKA ?
Solution: 1.1

Problem: Could you share which IC50 value was measured for HVLLPFYET ?
Solution: 0.924

Problem: Could you share which IC50 value was measured for SAVFKDSFL ?
Solution: 0.11

Problem: Could you share which IC50 value was measured for GLSSGFYFEI ?
Solution: 1.72

Problem: Could you share which IC50 value was measured for QMAGVEVRYI ?
Solution: 0.147

Problem: Could you share which IC50 value was measured for KTIAVSVYGA ?
Solution: 0.235

Problem: Could you share which IC50 value was measured for VAEHRFENM ?
Solution: 4.42

Problem: Could you share which IC50 value was measured for LIYYQNEVT ?
Solution: 1.08

Problem: Could you share which IC50 value was measured for ELTTVFIKYV ?
Solution: 0.081

Problem: Could you share which IC50 value was measured for DAMIHKTYI ?
Solution: 0.087

Problem: Could you share which IC50 value was measured for SLVSKHWEL ?
Solution: 0.378

Problem: Could you share which IC50 value was measured for GVPHSVFIA ?
Solution: 2.99

Problem: Could you share which IC50 value was measured for KLLYAAEMV ?
Solution: 2.81

Problem: Could you share which IC50 value was measured for LAISAVYFKA ?
Solution: 0.802

Problem: Could you share which IC50 value was measured for EVIERINLLV ?
Solution: 0.02

Problem: Could you share which IC50 value was measured for NMINKLYGYA ?
Solution: 0.292

Problem: Could you share which IC50 value was measured for TVGMLIYSM ?
Solution: 1.79

Problem: Could you share which IC50 value was measured for TAYIGTSNWT ?
Solution: 0.555
